- System under test: Recombinant human MASP2 enzyme (fragment corresponding to amino acids 297-686, C-terminal His Tag) (human, UniProt O00187 297-686)
- Sequence (O00187 other isoform, or with tags, fused parts or gaps limits assumed): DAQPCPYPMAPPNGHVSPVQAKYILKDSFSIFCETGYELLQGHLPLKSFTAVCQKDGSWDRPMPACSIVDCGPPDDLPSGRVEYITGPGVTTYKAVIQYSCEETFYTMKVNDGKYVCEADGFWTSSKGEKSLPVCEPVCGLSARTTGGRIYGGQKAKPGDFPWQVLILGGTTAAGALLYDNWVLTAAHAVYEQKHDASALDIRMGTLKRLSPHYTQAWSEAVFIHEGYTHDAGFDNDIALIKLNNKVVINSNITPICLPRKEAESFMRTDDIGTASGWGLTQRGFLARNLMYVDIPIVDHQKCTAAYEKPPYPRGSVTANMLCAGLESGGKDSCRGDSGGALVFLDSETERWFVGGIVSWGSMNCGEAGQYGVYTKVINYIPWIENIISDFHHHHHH
- Test: cell-based or functional assay
Bridge positions count the residues as written; N and C are the ends. Square brackets hold non-standard residues; d marks the D form. * marks the point of attachment. X14 = (2,4-dioxoimidazolidin-1-yl)acetic acid, O=C1CN(CC(=O)*)C(=O)N1; Oic = O=C(O)[C@@H]1C[C@@H]2CCCC[C@@H]2N1; Pen = CC(C)(S)[C@H](N)C(=O)O
Measurement label: human MASP2 IC50 (nM)
Numbers only, in nM.

Requested field: human MASP2 IC50. Item: X14-ICSRSLP[Oic]I[Pen]IPD-OH (disulfide 2-10; SMILES CC[C@H](C)[C@H](NC(=O)CN1CC(=O)NC1=O)C(=O)N[C@H]1CSSC(C)(C)[C@@H](C(=O)N[C@H](C(=O)N2CCC[C@H]2C(=O)N[C@@H](CC(=O)O)C(=O)O)[C@@H](C)CC)NC(=O)[C@H]([C@@H](C)CC)NC(=O)[C@@H]2C[C@@H]3CCCC[C@@H]3N2C(=O)[C@@H]2CCCN2C(=O)[C@H](CC(C)C)NC(=O)[C@H](CO)NC(=O)[C@H](CCCNC(=N)N)NC(=O)[C@H](CO)NC1=O) [((2,4-dioxoimidazolidin-1-yl)acetic acid)-IC+SRSLP-(Oic)-I-(Pen)+IPD-OH]
45

Where do the numbers come from? From patent US20210246166A1.
